Source: PubChem BioAssay AID330

I'd be grateful if you could share measured T/C for these entries.
test system: P388 leukemia ip, CD2F1 mice, survival T/C; assay: NCI In Vivo Anticancer Drug Screen. Data for tumor model P388 Leukemia (intraperitoneal) in CD2F1 (CDF1) mice; settings: endpoint: median survival time; dose: 25.0 mg/kg/injection; schedule: Q04DX003 (ip); vehicle: saline with Tween-80; higher = longer survival
Inconclusive results and toxic doses are left out.

Example results:
Cc1cccc(Cl)c1NC1=NCCO1 = 100 % of control
CCn1cnc(-c2ccccc2)c1-c1ccccc1 = 109 % of control
Cc1cccc(Nc2c(N)nc(N)nc2N)c1 = 100 % of control
NC(=S)N/N=C/c1ccc(-c2ccccc2)cc1 = 120 % of control
C[C@@H]1CC2=CC(=O)CC[C@@H]2[C@H]2CC[C@@]3(C)[C@@H](CC[C@]3(C)O)[C@@H]21 = 100 % of control

Now for the molecule whose T/C we want.
q: Can you look up the measured T/C of C=C[CH2][Sn]([c]1ccccc1)([c]1ccccc1)[c]1ccccc1 for me?
a: 101 % of control

* * *

tested on: P388 leukemia ip, CD2F1 mice, survival T/C; assay: NCI In Vivo Anticancer Drug Screen. Data for tumor model P388 Leukemia (intraperitoneal) in CD2F1 (CDF1) mice; details: endpoint: median survival time; dose: 50.0 mg/kg/injection; schedule: Q01DX009 (ip); vehicle: saline with Tween-80
Toxic doses and inconclusive results are not listed. How the source made its calls: active means survival T/C of 150% or more; inactive means T/C below 125% in these data.
// allowed return values: Y = active, N = inactive

These recorded examples may help you get a feel for the data.
CC(C)n1cnc2c(=S)nc[nH]c21 = N
CC(CCc1ccccc1)NC(C)C(O)c1ccc(O)cc1 (centres undefined) = N
COc1cccc(-n2cc[n+](C)c2/C=N/O)c1 = N
Nc1nc(N)nc(-c2cccs2)n1 = N
O=C1N(c2cccc(F)c2)C(=O)N1c1cccc(F)c1 = N

Let's switch to this compound now.
q: # fetch the recorded call for O=C(Cc1nc(-c2ccc(Cl)cc2)no1)c1ccccc1 here
a: N

* * *

tested on: P388 leukemia ip, CD2F1 mice, survival T/C; assay: NCI In Vivo Anticancer Drug Screen. Data for tumor model P388 Leukemia (intraperitoneal) in CD2F1 (CDF1) mice; settings: endpoint: median survival time; dose: 240.0 mg/kg/injection; schedule: Q01DX005 (ip); vehicle: Klucel (hydroxypropylcellulose) (HPC); higher = longer survival
Toxic doses and inconclusive results are not listed.
Observable: T/C

Solved entries:
CCOC(=O)c1cc(Cl)ccc1OS(N)(=O)=O = 99 % of control
CCOC(=O)c1nnn(-c2cncc(-n3nnc(C(=O)OCC)c3C(=O)OCC)n2)c1C(=O)OCC = 103 % of control
CN(Cc1ccc([N+](=O)[O-])cc1)C(=O)Nc1ccc(S(=O)(=O)F)cc1 = 92 % of control

Look up T/C for the entries below, preserving their order.
1. CCOC(=O)C1c2cccc(O)c2CCN1C(C)=O (stereo not given)
2. N#Cc1ccc(-c2nc3ncnc(N)c3[nH]2)cc1
3. O=C(Cn1nnc(N2CCCCC2)n1)N/N=C/c1ccccc1O
4. CN(C)c1c2c(oc(=O)c1Cl)-c1ccccc1OCC2
5. O=C(c1ccccc1C(=O)N1CCCO1)N1CCCO1
6. O=C1C2=C(Nc3ccccc3N2)OC1c1ccc2c(c1)OCO2 (stereo not given)
7. c1ccc(OCCNCCOc2ccccc2)cc1

a:
1. 98 % of control
2. 91 % of control
3. 95 % of control
4. 107 % of control
5. 100 % of control
6. 89 % of control
7. 103 % of control

Hi there! I need T/C for each item below, if you can.
1. CCc1ncc(C(C)(O)c2ccccc2)n1Cc1ccccc1 (stereo not given)
2. NC(=O)c1c(Cl)nc2n1CCS2
3. c1ccc(-c2nnc3sc4ccccc4n23)cc1
4. C=C1C[C@]23C[C@@]1(O)CC[C@H]2[C@]12C=C[C@H](O1)C(C(=O)OCC)=C2[C@@H]3O
5. O=C1Nc2ccccc2C1=Nc1ccc2[nH]c3ccccc3c2c1
6. CC(=O)OC1(c2ccccc2)N=C(c2ccccc2)N=C1c1ccccc1 (stereo not given)
7. CC(C)(C)n1nc(C2CC2)c(Br)c1NC(=O)c1ccc(Cl)cc1
8. COC(=O)C(Nc1ccc(OC)cc1)c1ccccc1 (stereo not given)

a:
["99 % of control", "88 % of control", "94 % of control", "120 % of control", "88 % of control", "105 % of control", "98 % of control", "110 % of control"]

Return reported T/C values for all items listed beneath this line.
1. N#C/C(=N\Nc1ccccc1Cl)C(=O)C1CC1
2. Cc1nc2ccccc2c(=O)n1/N=C\c1ccc2c(c1)CCC2

a:
89 % of control
95 % of control

* * *

tested on: P388 leukemia ip, CD2F1 mice, survival T/C; experiment: NCI In Vivo Anticancer Drug Screen. Data for tumor model P388 Leukemia (intraperitoneal) in CD2F1 (CDF1) mice; settings: endpoint: median survival time; dose: 120.0 mg/kg/injection; schedule: Q01DX005 (ip); vehicle: saline; higher = longer survival
Toxic doses and inconclusive results are not listed.
I'd be grateful if you could share measured T/C for these entries.

Nc1nc(-c2ccccc2)cc(-c2cc(-c3ccccc3)nc(N)n2)n1 = 102 % of control
CN(C)CCSc1nc2ccccc2o1 = 104 % of control
NC1(O)C(=O)NC(=O)NC1=O = 93 % of control

Take each entry in turn and give its T/C.
1. [O-][Br+2]([O-])O
2. COC(=O)C1(C#N)CC1

a:
99 % of control
96 % of control

Respectfully, I request T/C for each entry included below.
1. CN(C)CCSc1nc2ccccc2s1
2. O=C(c1c(F)c(F)c(F)c(F)c1F)n1ccnc1
3. COc1ccn(CC(C)=O)c(=O)n1
4. CC(=O)NCN(C)[N+](=O)[O-]
5. CCN(CC)[Si](C)(C)C
6. C1OC2C1OC1COC12 (stereo not given)

a:
1. 104 % of control
2. 101 % of control
3. 100 % of control
4. 97 % of control
5. 94 % of control
6. 100 % of control

* * *

tested on: P388 leukemia ip, CD2F1 mice, survival T/C; assay: NCI In Vivo Anticancer Drug Screen. Data for tumor model P388 Leukemia (intraperitoneal) in CD2F1 (CDF1) mice; details: endpoint: median survival time; dose: 400.0 mg/kg/injection; schedule: Q01DX001 (ip); vehicle: saline with Tween-80; higher = longer survival
Toxic doses and inconclusive results are not listed.
Observable: T/C

Worked examples, 5 molecules total:
O=C(Cn1c(=O)cc(Nc2ccccc2)c2ccccc21)Nc1ccccc1 = 94 % of control
O=c1c(N2CCOCC2)c(N2CCOCC2)c1=O = 90 % of control
Cc1nn(C(=S)S)c(C)c1N=Nc1cccc(Cl)c1Cl = 108 % of control
O=C(O)/C=C/CCCCCO = 90 % of control
CC(C(O)CO)n1cnc2c(NCC(O)CO)ncnc21 (stereo unspecified) = 100 % of control

Please look at the items below and tell me T/C for each one, in order.
1. CC/C(C)=N\Nc1cc(C)[nH]c(=O)c1
2. Cc1ccc(NC(=O)C2C(=O)N(c3ccc(C)c(C)c3)C(=O)C2N=N)cc1C (stereo unspecified)
3. Cn1c2c(c(=O)n(C)c1=O)Cc1cc(CC(=O)O)ccc1N2

a:
1: 91 % of control; 2: 91 % of control; 3: 96 % of control

Go through the list and state T/C for each entry.
1. COc1nc(NC2OC(COC(C)=O)C(OC(C)=O)C(OC(C)=O)C2OC(C)=O)c2c(O)coc2n1 (stereo unspecified)
2. O=[N+]([O-])c1ccc(N/N=C(\CBr)c2ccccc2)c([N+](=O)[O-])c1
3. CCCCOCN(COCCCC)c1ccccc1
4. CC1(C)Cc2nn3c(c2C(=O)O1)CC(c1ccccc1)c1ccccc1-3 (stereo unspecified)
5. COc1cc(OCc2ccccc2)c(CC(=O)O)c([N+](=O)[O-])c1
6. O=S(=O)(Nc1ccc(CCc2ccc(NS(=O)(=O)c3ccccc3)cc2)cc1)c1ccccc1
7. CC1(C)CCNc2ccccc2S1
8. CN(C)C1(c2ccc3ccccc3c2)CSC1

a:
1. 92 % of control
2. 87 % of control
3. 109 % of control
4. 96 % of control
5. 90 % of control
6. 91 % of control
7. 100 % of control
8. 96 % of control

* * *

System: P388 leukemia ip, CD2F1 mice, survival T/C
Assay: NCI In Vivo Anticancer Drug Screen. Data for tumor model P388 Leukemia (intraperitoneal) in CD2F1 (CDF1) mice
Settings: endpoint: median survival time; dose: 100.0 mg/kg/injection; schedule: Q01DX009 (ip); vehicle: saline with Tween-80; higher = longer survival
Procedure: The antitumor activity of compounds was measured in mice bearing transplantable tumors. Survival or tumor size were measured and the results are expressed as the measurement made in the treated group (T) divided by the measurement made in the vehicle treated control group (C). The tumor model used in this assay is P388 Leukemia (intraperitoneal) in CD2F1 (CDF1) mice
Toxic doses and inconclusive results are not listed.
Observable: T/C

O=C1NC(=S)N/C1=C\c1ccc(Cl)c(Cl)c1 = 95 % of control
CSC1(CC(=O)N(C)C)C(=O)N(C)c2ccccc21 (configuration not stated) = 115 % of control
COC1/C=C/OC2(C)Oc3c(C)c(O)c4c(c3C2=O)C(=O)C=C(NC(=O)/C(C)=C\C=C\C(C)C2OC(C)(C)OC(C2C)C(C)C(OC(C)=O)C1C)C4=O (configuration not stated) = 113 % of control
CCCCOC(=O)OOC(C)(C)C = 110 % of control
c1cnc2c(c1)C1OC(S2)c2cccnc2S1 = 97 % of control
Nc1cc(=O)[nH]c(=O)[nH]1 = 100 % of control

q: Lookup: T/C / P388 leukemia ip, CD2F1 mice, survival T/C / Fc1ccccc1CSc1ncnc2nc[nH]c12
a: 100 % of control
